These entries and their values trace back to PubChem BioAssay (NCI).

# Tested on: HOP-92 NSCLC
# MEASUREMENT_PROTOCOL: NCI-60 one-dose screen, 48 h
# APPLIED_CONDITIONS: 10 µM unless noted
# Method: Growth inhibition of the HOP-92 human Non-Small Cell Lung tumor cell line is measured as a screen for anti-cancer activity. Cells are grown in 96 well plates and exposed to the test compound for 48 hours. Compounds are tested at a single concentration, which is 10^-5 M for most compounds. The reported endpoint is percent growth (GI% or GIPRCNT), where numbers from 0 - 100% represent growth inhibition, and numbers from -100% - 0 represent cell death. […]
About 83,000 compounds went through this panel and 20% of them were active in at least one assay; those are over-represented in the sample as a whole. Activity calls are given as the source filed them. How the source made its calls: active means growth percent below 10; inactive means the rest.
Write down one outcome, taken from yes (active), no (inactive)

COMPOUND: COc1cccc(-c2ccc3c(c2)C2CCN(Cc4ccccc4)C3C2)c1 (configuration not stated)
LABEL_VALUE: no

Returns: the outcome recorded for COC(=O)c1c2c(c(C)[n+]([O-])c1C)C(=O)C(NCc1ccc(O)cc1)=CC2=O in this assay.
no

Returns: the outcome recorded for CCCCCCCCCCCCSC1=CC(=O)C=CC1=O in this assay.
no

Returns: the outcome recorded for Oc1cccc(Nc2nc(-c3ccccn3)cs2)c1 in this assay.
no

* * *

growth values, listed per item
# Test system: ACHN renal
# MEASUREMENT_PROTOCOL: NCI-60 one-dose screen, 48 h (100 = growth as untreated, 0 = no growth, -100 = all killed)
# APPLIED_CONDITIONS: 10 µM unless noted
This is part of a sample that, as a whole, favours compounds with a hit. Of some 83,000 tested, about 20% had one in any assay.
Number in %, nothing else.

// solved cases for growth follow
COMPOUND: Cc1cccc2c(=O)c3c(sc12)c(NCCCN)nc1ccccc13
UNIT_LABEL: %
TEST_RESULT: -82.9
--
COMPOUND: COc1cc2cc(Oc3ccc(NC(=O)Nc4ccc(Cl)c(C(F)(F)F)c4)cc3)c(C)nc2cc1OCCN1CCCCC1
UNIT_LABEL: %
TEST_RESULT: -100
--
COMPOUND: Cc1nc(-c2ccccc2)cc2c(O)c(C(=O)N/N=C/Cc3ccccc3)[nH]c(=O)c12
UNIT_LABEL: %
TEST_RESULT: 104

Tell me the measured growth of CCN(CC)c1ccc(/C=C(\C#N)c2cc3ccccc3[nH]2)cc1 , please.
70.7

Tell me the measured growth of Cn1c(=O)c2c(-c3ccccc3F)n(-c3ccc4c(c3)OCO4)cc2n(C)c1=O , please.
100

Tell me the measured growth of C=CC(=O)N1CC2(CC(n3nc(-c4ccc(Oc5ccccc5)cc4)c4c(N)ncnc43)C2)C1 , please.
5.33

Tell me the measured growth of COC(=O)[C@@]12CC[C@@H](C)[C@]3(C[C@@H](c4ccoc4)OC3=O)[C@H]1CC[C@@H]1O[C@@]12C , please.
105

Tell me the measured growth of Cc1nn2c(-c3nc4ccc(Cl)cc4[nH]3)c(-c3ccc(F)cc3)nc2s1 , please.
102

Tell me the measured growth of COc1ccc(S(=O)(=O)ON=C2C=C(C)C(=O)C(C)=C2)cc1 , please.
46

Tell me the measured growth of COc1cccc(-c2ccc3c(c2)C2CCN(Cc4ccccc4)C3C2)c1 (stereo not given) , please.
93.2

Tell me the measured growth of Cc1ccccc1-c1cc(-c2ccc(Br)s2)[nH]c(=O)c1C#N , please.
101

Tell me the measured growth of Cc1ccc(S(=O)(=O)c2ccc3[nH]c(=O)[nH]c(=O)c3c2)cc1 , please.
109

Tell me the measured growth of C[C@@H](Oc1cc(-c2cnn(C3CC4(CCNCC4)C3)c2)cnc1N)c1c(F)ccc(Cl)c1Cl , please.
28.2

Tell me the measured growth of COc1cc(/C=N/NC(=O)c2cnn3c2NC(c2ccccc2)C3)ccc1OC1CCCC1 (stereo not given) , please.
35.6

Tell me the measured growth of CCCCCCCCCCCC(=O)[O][Sn]([CH2]CCC)([CH2]CCC)[CH2]CCC , please.
-95.2

Tell me the measured growth of COc1ccc(C(=O)COc2cccc(/C=C3\CSc4ccc(C)cc4C3=O)c2)cc1 , please.
101

Tell me the measured growth of Cc1cccc2c(=O)c3c(sc12)c(NCCNCCO)nc1ccccc13 , please.
-19.2

Tell me the measured growth of ONc1nc(NO)c2[nH]cnc2n1 , please.
60.9

Tell me the measured growth of COC(=O)c1c2c(c(C)[n+]([O-])c1C)C(=O)C(NCc1ccc(O)cc1)=CC2=O , please.
8.06

Tell me the measured growth of O=C(c1ccccc1)C(Br)C(Br)c1cccc([N+](=O)[O-])c1 (stereo not given) , please.
-87.9

Tell me the measured growth of Cc1nc2ccc(Cl)cc2n1C , please.
102

Tell me the measured growth of CC1(C)N=C(N)N=C(N)N1c1cccc(OCCOc2cccc([N+](=O)[O-])c2)c1 , please.
89.9

Tell me the measured growth of COc1cc(C2=NN(c3ccc(S(N)(=O)=O)cc3)C(c3ccc(Cl)cc3)C2)cc(OC)c1OC (stereo not given) , please.
46.5

Tell me the measured growth of COc1ccc(-n2ncc3c2ccc2cc(S(=O)(=O)c4ccccc4)c(=O)n(C)c23)cc1 , please.
75.4

Tell me the measured growth of COc1cc(C(F)(F)F)ccc1-c1cc(-c2ccc(F)cc2)n[nH]1 , please.
77

Tell me the measured growth of CN([N-]C(=O)CC(=O)[N-]N(C)C(=S)c1ccccc1)C(=S)c1ccccc1.[Cu+2] , please.
-50.6

Tell me the measured growth of Cc1ccc(NS(=O)(=O)c2ccc(-c3cnc(C4CC4)o3)cc2)cc1 , please.
46.6

* * *

growth values, listed per item
# Tested on: MDA-MB-231 breast
# MEASUREMENT_PROTOCOL: NCI-60 one-dose screen, 48 h (100 = growth as untreated, 0 = no growth, -100 = all killed)
# APPLIED_CONDITIONS: 10 µM unless noted
About 83,000 compounds went through this panel and 20% of them were active in at least one assay; those are over-represented in the sample as a whole.
Number in %, nothing else.

Tell me the measured growth of O=C1C2CC3C(CC2C(=O)[N]1[Sn]([c]1ccccc1)([c]1ccccc1)[c]1ccccc1)C1(Cl)C(Cl)=C(Cl)C3(Cl)C1(Cl)Cl (stereo not drawn) , please.
-94.7

Tell me the measured growth of CCOc1ccc(-c2cnnn2-c2nonc2-n2cccc2)cc1 , please.
4.16

* * *

# Tested on: SF-539 CNS
# MEASUREMENT_PROTOCOL: NCI-60 one-dose screen, 48 h
# APPLIED_CONDITIONS: 10 µM unless noted
About 83,000 compounds went through this panel and 20% of them were active in at least one assay; those are over-represented in the sample as a whole. Activity calls are given as the source filed them. How the source made its calls: active means growth percent below 10; inactive means the rest.
Write down one outcome, taken from T (active), F (inactive)

Known results for molecules:
MOLECULE: C[C@@H](Oc1cc(-c2cnn(C3CC4(CCCNC4)C3)c2)cnc1N)c1c(Cl)ccc(F)c1Cl (stereo not given in full)
LABEL_VALUE: F
//
MOLECULE: Cc1cc(NS(=O)(=O)c2ccc(NC(=O)COc3ccc(-c4cc5ccccc5[nH]4)cc3)cc2)no1
LABEL_VALUE: T
//
MOLECULE: CCN(CC)c1ccc2c(c1)OS(=O)(=O)N=C2
LABEL_VALUE: F
//
MOLECULE: COc1ccc(-c2nc3sc(C)nn3c2-c2nc3cc(C)c(C)cc3[nH]2)cc1
LABEL_VALUE: F
//
MOLECULE: Cc1nc2cc(Nc3nc(NCCO)nc(Nc4ccc(F)cc4)n3)ccc2n1Cc1ccccc1
LABEL_VALUE: F

Returns: the outcome recorded for Cc1c(C(=O)Nc2nc(-c3ccccc3)cs2)nnn1-c1ccccc1Br in this assay.
F

Returns: the outcome recorded for COc1ccc(Nc2[nH]n(C3=Nc4ccccc4Sc4ccccc43)c(=O)c2C#N)cc1 in this assay.
F

Returns: the outcome recorded for O=C1/C(=C/c2ccc(Oc3ccccc3)cc2)N=C(c2ccccc2)N1CCc1cccs1 in this assay.
F

Returns: the outcome recorded for N#CC1=C(N)Oc2cc(N)ccc2C1c1ccc(F)cc1 (stereo not given) in this assay.
F

Returns: the outcome recorded for c1ccc2c(c1)oc1cc3c(cc12)nnc1cccn13 in this assay.
F

* * *

# Tested on: SF-268 CNS
# MEASUREMENT_PROTOCOL: NCI-60 one-dose screen, 48 h (100 = growth as untreated, 0 = no growth, -100 = all killed)
# APPLIED_CONDITIONS: 10 µM unless noted
The panel holds about 83,000 compounds, 20% with a hit somewhere; the sample as a whole holds those more often.
RESULT_TYPE: growth (%)
Number in %, nothing else.

// solved cases for growth follow
COMPOUND: CC1(C)N=C(N)N=C(N)N1c1cccc(/C=C/C=C/c2cccc([N+](=O)[O-])c2)c1
ASSAYED_TARGET: SF-268 CNS
TEST_RESULT: 42.5

COMPOUND: N#CCCN1CCN(CCC#N)C1=S
ASSAYED_TARGET: SF-268 CNS
TEST_RESULT: 99.4

COMPOUND: COc1cc2nc(SCc3cc(OC)c(OC)c(OC)c3)n(-c3ccccc3OC)c(=O)c2cc1OC
ASSAYED_TARGET: SF-268 CNS
TEST_RESULT: 69.9

COMPOUND: COc1ccc(C2=NOC(CC(=O)N(CCO)CCO)C2)cc1OC1CCCC1 (stereo unspecified)
ASSAYED_TARGET: SF-268 CNS
TEST_RESULT: 97

SF-268 CNS / growth / O=C1C=CC(=O)N1CCCCCCCCCCN1C(=O)C=CC1=O : value?
103

SF-268 CNS / growth / CCCC1=NNC(=O)C1 : value?
108
